Test system: WHIM2 (cells of a triple-negative basal-like breast cancer xenograft);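 further: PDX cells carrying CMV promoter-driven luciferase, viability read as total photon flux per second by IVIS imaging following D-luciferin, vehicle control 0.1% DMSO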
Assay: cell viability (% of vehicle); higher = less cytotoxic
Conditions: 10 µM; 72 h
Parameter: cell viability
The answer should be a number; do not append a unit.

Problem: Recorded cell viability of C.CCN1CC(CCN2CCOCC2)C(c2ccccc2)(c2ccccc2)C1=O.O (centres undefined) [Doxapram HCl] , please.
Solution: 82.8

Problem: Recorded cell viability of CC(=O)OC12COC1CC(O)C1(C)C(=O)C(O)C3=C(C)C(OC(=O)C(O)C(NC(=O)OC(C)(C)C)c4ccccc4)CC(O)(C(OC(=O)c4ccccc4)C21)C3(C)C.O.O.O (centres undefined) [Docetaxel Trihydrate] , please.
Solution: 72.3

Problem: Recorded cell viability of Nc1ccc(S(=O)(=O)c2ccc(N)cc2)cc1 , please.
Solution: 115

Problem: Recorded cell viability of C=C1CCC(O)CC1=CC=C1CCCC2(C)C1CCC2C(C)C=CC(C)C(C)C (centres undefined) [Vitamin D2 (Ergocalciferol)] , please.
Solution: 40.7

Problem: Recorded cell viability of CCC1(O)CC2CN(CCc3c([nH]c4ccccc34)C(C(=O)OC)(c3cc4c(cc3OC)N(C)C3C(O)(C(=O)OC)C(OC(C)=O)C5(CC)C=CCN6CCC43C65)C2)C1 (centres undefined) , please.
Solution: 80.7

Problem: Recorded cell viability of COc1ncc(-c2ccc3nccc(-c4ccnnc4)c3c2)cc1NS(=O)(=O)c1ccc(F)cc1F , please.
Solution: 49.7

Problem: Recorded cell viability of N.N.[Cl][Pt+2][Cl] [Cisplatin] , please.
Solution: 117

Problem: Recorded cell viability of CC(C)(C)NC(=O)C1CCC2C3CCC4NC(=O)C=CC4(C)C3CCC12C (centres undefined) [Finasteride] , please.
Solution: 94

Problem: Recorded cell viability of CN(C)CCN1C(=O)c2cccc3cc(N)cc(c23)C1=O [Amonafide] , please.
Solution: 55.5

Problem: Recorded cell viability of CCCC1CC(C(=O)NC(C(C)Cl)C2OC(SC)C(OP(=O)(O)O)C(O)C2O)N(C)C1 (centres undefined) [Clindamycin Phosphate] , please.
Solution: 92.7

Problem: Recorded cell viability of NC(CO)(CO)CO.O=C(c1ccccc1)c1ccc2n1CCC2C(=O)O (centres undefined) [Ketorolac tromethamine salt] , please.
Solution: 130

Problem: Recorded cell viability of CC1(C)O[C@@H]2C[C@H]3[C@@H]4CCC5=CC(=O)C=C[C@]5(C)[C@H]4[C@@H](O)C[C@]3(C)[C@]2(C(=O)CO)O1 [Desonide] , please.
Solution: 96.1

Problem: Recorded cell viability of O=C(O)c1ccccc1O , please.
Solution: 95.1

Problem: Recorded cell viability of O=C(O)c1cccnc1Nc1cccc(C(F)(F)F)c1 , please.
Solution: 105
